test protocol: Cytotoxicity against LPS/IFNgamma-stimulated mouse RAW264.7 cells assessed as cell viability at 6.5 uM after 48 hrs by MTT method (reference value: 100 +/- 1.8%)
Assay type: cell-based
condition info: LPS/IFNgamma-stimulated RAW264.7 cells, read-out: Activity
assay endpoint: viability at 48 h, 6.5 µM (%)
// units = %; emit number, no label

Solved cases (4 shown):
{"columns": ["smiles repr", "assay endpoint", "reported"],
 "data": [
  ["CO[C@H]1O[C@H](COc2cc(O)c3c(=O)c(-c4ccc(O)cc4)coc3c2)[C@@H](O)[C@H](O)[C@H]1O", "viability at 48 h, 6.5 µM", 91.3],
  ["CC1(C)O[C@H]2[C@@H](O1)[C@@H](COc1cc(O)c3c(=O)c(-c4ccc(O)cc4)coc3c1)O[C@@H]1OC(C)(C)O[C@@H]12", "viability at 48 h, 6.5 µM", 87.6],
  ["CO[C@H]1O[C@H](COc2cc(O)c3c(=O)c(-c4ccc(O)cc4)coc3c2)[C@@H](OC(C)=O)[C@H](OC(C)=O)[C@H]1OC(C)=O", "viability at 48 h, 6.5 µM", 103],
  ["CC1(C)O[C@H]2[C@@H](O1)[C@@H](COc1ccc(-c3coc4cc(OC[C@H]5O[C@@H]6OC(C)(C)O[C@@H]6[C@H]6OC(C)(C)O[C@H]65)cc(O)c4c3=O)cc1)O[C@@H]1OC(C)(C)O[C@@H]12", "viability at 48 h, 6.5 µM", 98.9]
]}

Let us move to another entry and its viability at 48 h, 6.5 µM.
Give viability at 48 h, 6.5 µM for the following compound: O=c1c(-c2ccc(O)cc2)coc2cc(OC[C@H]3O[C@H](O)[C@H](O)[C@@H](O)[C@H]3O)cc(O)c12
95.9
